Here the recorded pD2, smooth muscle contraction of human umbilical artery is given for each entry.
# Assay system: T1, C5a receptor (C5aR) expressed on the surface of human PMNs (human, UniProt P21730 1-350)
# T1 sequence (looked up): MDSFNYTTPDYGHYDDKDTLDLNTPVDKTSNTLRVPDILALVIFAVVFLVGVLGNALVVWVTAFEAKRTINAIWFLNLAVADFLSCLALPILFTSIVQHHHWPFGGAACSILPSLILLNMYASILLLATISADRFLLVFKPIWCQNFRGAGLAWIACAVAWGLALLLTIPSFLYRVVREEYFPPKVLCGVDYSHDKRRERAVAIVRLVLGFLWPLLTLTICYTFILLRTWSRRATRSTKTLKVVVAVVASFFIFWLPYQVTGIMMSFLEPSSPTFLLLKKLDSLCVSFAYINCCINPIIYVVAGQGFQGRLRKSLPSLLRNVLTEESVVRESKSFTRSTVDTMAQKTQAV
# Measurement protocol: cell-based or functional assay
Where no end group is shown, it is not given here. [ ]: non-standard residue; d: D form.

Solved cases (4 shown):
Reported pD2, smooth muscle contraction of human umbilical artery, binder IPQSLDSWWTSLRRYSFKPMPL[dA]RG (Synthetic peptide) : ____
5.17 -log EC50 (M)

Another binder to look at: IPQSLDSWWTSLRVRRYSFKPMPL[dA]R (Synthetic peptide; also called RVRR-containing construct) [IPQSLDSWWTSLRVRRYSFKPMPLaR (RVRR furin-sensitive-linked C5a-active construct)]
6.67 -log EC50 (M)

Another binder to look at: IPQSLDSWWTSLYSFKPMPL[dA]R (Synthetic peptide; also called C5a-active construct without linker) [IPQSLDSWWTSLYSFKPMPLaR (HBsAg CTL epitope attached directly to N-terminus of the C5a agonist)]
6.68 -log EC50 (M)

Another binder to look at: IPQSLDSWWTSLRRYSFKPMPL[dA]R (Synthetic peptide; also called RR-containing construct) [IPQSLDSWWTSLRRYSFKPMPLaR (double-Arg-linked C5a-active construct)]
6.79 -log EC50 (M)

Please look at the following binder next.
Reported pD2, smooth muscle contraction of human umbilical artery, binder YSFKPMPL[dA]RRRIPQSLDSWWTSL (Synthetic peptide) [YSFKPMPLa[…] (C5a-inactive construct, C-terminus of agonist blocked by the HBsAg CTL epitope)] : ____
4.41 -log EC50 (M)
